Target: human GPR52 (Homo sapiens, UniProt Q9Y2T5)
Sequence (Q9Y2T5 whole entry): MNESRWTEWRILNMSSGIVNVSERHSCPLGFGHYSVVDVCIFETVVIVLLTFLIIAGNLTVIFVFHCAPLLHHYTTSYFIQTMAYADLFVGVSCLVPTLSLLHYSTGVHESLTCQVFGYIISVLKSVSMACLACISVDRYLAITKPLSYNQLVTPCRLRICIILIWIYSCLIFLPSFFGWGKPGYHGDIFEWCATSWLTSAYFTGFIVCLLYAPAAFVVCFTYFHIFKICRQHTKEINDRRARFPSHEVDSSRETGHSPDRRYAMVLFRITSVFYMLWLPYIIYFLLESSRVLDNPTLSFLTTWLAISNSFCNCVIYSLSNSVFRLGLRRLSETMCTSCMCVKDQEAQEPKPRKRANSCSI
Assay: GPR52 Agonist Functional cAMP Assay
Conditions: maximal response normalised to DMSO (0%) and maximal compound 7m (J. Med. Chem., 2014, 57, 5226) response (100%)
Experimental endpoint: Emax (%)

{"columns": ["Structure smiles", "Assay target", "Readout number"],
 "data": [
  ["O=C1NCCOc2nn(-c3ccnc(Cc4cc(F)cc(C(F)(F)F)c4)c3)cc21", "human GPR52 (Homo sapiens, UniProt Q9Y2T5)", 77],
  ["Cc1nn(-c2cc(Cc3cc(F)cc(C(F)(F)F)c3)ccn2)c2c1C(=O)NCC2", "human GPR52 (Homo sapiens, UniProt Q9Y2T5)", 98],
  ["N#Cc1cc(Cc2cc(-n3ncc4c3CCNC4=O)ccn2)cc(C(F)(F)F)c1", "human GPR52 (Homo sapiens, UniProt Q9Y2T5)", 58],
  ["O=C1NCCCc2nn(-c3cc(Cc4cccc(C(F)(F)F)c4)ccn3)nc21", "human GPR52 (Homo sapiens, UniProt Q9Y2T5)", 75]
]}

---

Target: UniProtKB Q9Y2T5
Experiment: GPR52 Agonist Functional cAMP Assay
Details: maximal response normalised to DMSO (0%) and maximal compound 7m (J. Med. Chem., 2014, 57, 5226) response (100%)
Experimental endpoint: Emax (%)

Observe how each entry below is paired with its result.
{"columns": ["Compound", "Experimental endpoint", "Readout number"],
 "data": [
  ["Cc1cc(Cc2ccnc(-n3nc(C)c4c3CCNC4=O)c2)cnc1F", "Emax", 93],
  ["Cc1nn(-c2ccnc(Cc3cc(F)cc(Cl)c3)c2)c2c1C(=O)NCC2", "Emax", 99],
  ["Cc1cc(F)cc(Cc2cc(-n3ncc4c3CCNC4=O)ccn2)c1", "Emax", 95],
  ["CC1CNC(=O)c2cnn(-c3ccnc(Cc4cc(F)cc(C(F)(F)F)c4)c3)c21 (stereo not drawn)", "Emax", 95],
  ["CN1CCc2nn(-c3cc(Cc4cccc(C(F)(F)F)c4)ccn3)nc2C1=O", "Emax", 74]
]}

1: Cc1cnc(Cc2cc(F)cc(C(F)(F)F)c2)cc1-n1ncc2c1CCNC2=O
2: O=C1NCCc2c1cnn2-c1ccnc(Cc2cc(C(F)(F)F)cc(C(F)(F)F)c2)c1
Which value of Emax is numerically greater: that of 1 or that of 2 ? // respond with label for picked entry 1
(1: 80%, 2: 54%)

---

Molecular target: human GPR52 (Homo sapiens, UniProt Q9Y2T5)
Test: GPR52 Agonist Functional cAMP Assay;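 note: HEKf cells transduced with GPR52 BacMam for 24 h, 2000 per well, exposed to compounds 30 min at 37° C with 0.5 mM IBMX, cAMP read by HTRF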
Details: maximal response normalised to DMSO (0%) and maximal compound 7m (J. Med. Chem., 2014, 57, 5226) response (100%)
Experimental endpoint: Emax (%)

Look over these answered cases.
{"columns": ["Molecule", "Readout number"],
 "data": [
  ["O=C1NCCc2nn(-c3cc(Cc4cc(F)cc(C(F)(F)F)c4)ccn3)nc21", 92],
  ["Cc1nn(-c2ccnc(C(O)c3cc(F)cc(C(F)(F)F)c3)c2)c2c1C(=O)NCC2 (single isomer, unassigned) [117 Isomer 1]", 83],
  ["Cc1nn(-c2ccnc(Cc3cc(F)c(F)c(C(F)(F)F)c3)c2)c2c1C(=O)NCC2", 102],
  ["Cc1nn(-c2cc(C(O)c3cc(F)cc(C(F)(F)F)c3)ccn2)c2c1C(=O)NCC2 (single isomer, unassigned) [118 Isomer 1]", 94],
  ["O=C1NCCc2c1cnn2-c1ccnc(C(F)c2cc(F)cc(C(F)(F)F)c2)c1 (centres unmarked)", 93],
  ["O=C1NCCOc2c1cnn2-c1cc(Cc2cccc(C(F)(F)F)c2)ccn1", 89],
  ["O=C1NCCc2c1cnn2-c1ccnc(Cc2ccc(F)c(Cl)c2)c1", 89],
  ["O=C1NCCc2c1cnn2-c1ccnc(Cc2cccc(C(F)(F)F)c2)c1", 91]
]}

1: O=C1NCCc2c1cnn2-c1ccnc(Cc2ccc(C(F)(F)F)cc2)c1
2: O=C1NCCc2c1cnn2-c1ccnc(Cc2ccc(F)c(C(F)(F)F)c2)c1
3: O=C(c1cc(F)cc(C(F)(F)F)c1)c1cc(-n2ncc3c2CCNC3=O)ccn1
Highest Emax first, then in falling order down to the smallest. The response must list the labels following the requested ordering. 2, 1, 3
(2: 90%, 1: 61%, 3: 40%)

P: O=C1NCCc2c1cnn2-c1ccnc(Oc2cc(F)cc(C(F)(F)F)c2)c1
Q: Cc1nn(-c2ccnc(Cc3cc(Cl)c(F)c(C(F)(F)F)c3)c2)c2c1C(=O)NCC2
Could you check which of P and Q has a smaller value for Emax? Answer with the label corresponding to your selection. P
